- Run description: chemical genetic growth profiling, strain panel (AID 1159580);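 also: tested at 20 µM; growth read once vehicle control cultures reached saturation at 30 °C; lower values mean less growth of the strain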
- Condition context: S. cerevisiae deletion strains, growth OD, locus YKL203C, strain TOR2
Among all 5,500 compounds or so, about 2,000 (36%) were called active. Roughly 18% stayed inconclusive and do not appear here. Rule as the data show it: active = normalized growth mostly below about 0.91 (no sharp cut-off); inconclusive = no clear call, values can overlap the other calls; inactive = mostly above about 0.92. This is one part of the list.
Output constraint: value belongs to active, inactive

Assay result, entry O=[N+]([O-])c1cc(C(F)(F)F)cc([N+](=O)[O-])c1Oc1ccc(Cl)c(Cl)c1 — outcome?
active

Assay result, entry O=C1C(NCc2ccccc2)=C(NCc2ccccc2)C(=O)c2ccccc21 — outcome?
inactive

Assay result, entry CC(C)OC(=O)Nc1cc(Cl)cc(Cl)c1 — outcome?
inactive

Assay result, entry COc1cc(C2CC(=S)Nc3ccccc3S2)cc(OC)c1OC (configuration not stated) — outcome?
inactive

Assay result, entry Cc1cc(N=Cc2cc(Cl)cc(Cl)c2O)no1 — outcome?
active

Assay result, entry CCOC(=O)C(O)(c1ccc(NC(=O)c2ccc(Cl)c(Cl)c2)cc1)C(F)(F)F (configuration not stated) — outcome?
inactive

Assay result, entry COC(=O)c1cc(I)c(OC(C)=O)c(I)c1 — outcome?
inactive

Assay result, entry COC(=S)Nc1cc(Cl)cc(Cl)c1 — outcome?
active

Assay result, entry Cc1csc2c(N3CCN(C(=S)Nc4ccc(C(F)(F)F)cc4)CC3)ncnc12 — outcome?
inactive

Assay result, entry NNC(=O)c1oc2nc(-c3ccccc3)cc(-c3ccccc3)c2c1N — outcome?
inactive

Assay result, entry Cc1oc(C(C)(C)C)cc1-c1cc(NC(=O)c2ccccc2)n[nH]1 — outcome?
inactive

Assay result, entry Cc1cc(Sc2c([N+](=O)[O-])cc(C(F)(F)F)cc2[N+](=O)[O-])c(Cl)cc1Cl — outcome?
inactive

Assay result, entry COC(=O)c1sccc1S(=O)(=O)Nc1cc(C(F)(F)F)cc(C(F)(F)F)c1 — outcome?
inactive

Assay result, entry O=[N+]([O-])c1cc(C(F)(F)F)ccc1Sc1n[nH]c(-c2cc(Cl)cc(Cl)c2)n1 — outcome?
active

Assay result, entry Cc1csc2ncnc(N3CCN(C(=S)Nc4ccc(C(F)(F)F)cc4)CC3)c12 — outcome?
inactive

Assay result, entry O=S(=O)(Nc1cc(C(F)(F)F)cc(C(F)(F)F)c1)c1ccc(Cl)s1 — outcome?
inactive

Assay result, entry O=[N+]([O-])c1ccc(NCc2ccc(Cl)c(Cl)c2)nc1 — outcome?
inactive

Assay result, entry COc1ccc(OC)c2nc3c(nc12)C(=O)c1ccccc1-3 — outcome?
inactive

Assay result, entry N/C(=N/OCc1c(F)cccc1Cl)c1ccc(Cl)cc1 — outcome?
inactive

Assay result, entry O=[N+]([O-])c1ccc(Sc2ccccc2)c([N+](=O)[O-])c1 — outcome?
inactive

Assay result, entry Cc1cc(C)c2cc(C(=O)NCCNc3ccc(C(F)(F)F)cn3)[nH]c2c1 — outcome?
active

Assay result, entry O=C(OCCNc1ccc([N+](=O)[O-])cn1)c1ccc([N+](=O)[O-])o1 — outcome?
inactive

Assay result, entry O=C(NCc1ccc2c(c1)OCO2)c1cc2ccccc2s1 — outcome?
active

Assay result, entry Cn1cc(Br)c(-c2cccc(NS(=O)(=O)c3ccc(Cl)cc3)c2)n1 — outcome?
inactive

Assay result, entry O=C(Nc1ccc(F)cc1)c1cc(Br)ccc1O — outcome?
inactive

Assay result, entry O=C(Nc1cc(Cl)cc(Cl)c1)c1cc(Cl)ccc1O — outcome?
inactive

Assay result, entry FC(F)(F)c1ccncc1-c1nc(-c2ccc(Cl)cc2)cs1 — outcome?
inactive

Assay result, entry CC(C)Sc1c(Cl)cccc1NC(=O)Nc1ccccc1 — outcome?
inactive

Assay result, entry CCOC(=O)c1cnc(-c2ccccn2)[nH]c1=O — outcome?
inactive

Assay result, entry O=C(/C=C/c1ccc(Cl)cc1)Nc1cccc(Cl)c1 — outcome?
inactive

Assay result, entry O=[N+]([O-])c1ccc(Sc2ccccc2)cc1O — outcome?
inactive

Assay result, entry CC1SC(c2cccnc2)N(c2ccc(F)cc2F)C1=O (configuration not stated) — outcome?
inactive
